Reference for the values: ChEMBL document CHEMBL5131570

Target: Ubiquitin carboxyl-terminal hydrolase 8 (Homo sapiens, UniProt P40818)
Sequence (P40818 whole entry): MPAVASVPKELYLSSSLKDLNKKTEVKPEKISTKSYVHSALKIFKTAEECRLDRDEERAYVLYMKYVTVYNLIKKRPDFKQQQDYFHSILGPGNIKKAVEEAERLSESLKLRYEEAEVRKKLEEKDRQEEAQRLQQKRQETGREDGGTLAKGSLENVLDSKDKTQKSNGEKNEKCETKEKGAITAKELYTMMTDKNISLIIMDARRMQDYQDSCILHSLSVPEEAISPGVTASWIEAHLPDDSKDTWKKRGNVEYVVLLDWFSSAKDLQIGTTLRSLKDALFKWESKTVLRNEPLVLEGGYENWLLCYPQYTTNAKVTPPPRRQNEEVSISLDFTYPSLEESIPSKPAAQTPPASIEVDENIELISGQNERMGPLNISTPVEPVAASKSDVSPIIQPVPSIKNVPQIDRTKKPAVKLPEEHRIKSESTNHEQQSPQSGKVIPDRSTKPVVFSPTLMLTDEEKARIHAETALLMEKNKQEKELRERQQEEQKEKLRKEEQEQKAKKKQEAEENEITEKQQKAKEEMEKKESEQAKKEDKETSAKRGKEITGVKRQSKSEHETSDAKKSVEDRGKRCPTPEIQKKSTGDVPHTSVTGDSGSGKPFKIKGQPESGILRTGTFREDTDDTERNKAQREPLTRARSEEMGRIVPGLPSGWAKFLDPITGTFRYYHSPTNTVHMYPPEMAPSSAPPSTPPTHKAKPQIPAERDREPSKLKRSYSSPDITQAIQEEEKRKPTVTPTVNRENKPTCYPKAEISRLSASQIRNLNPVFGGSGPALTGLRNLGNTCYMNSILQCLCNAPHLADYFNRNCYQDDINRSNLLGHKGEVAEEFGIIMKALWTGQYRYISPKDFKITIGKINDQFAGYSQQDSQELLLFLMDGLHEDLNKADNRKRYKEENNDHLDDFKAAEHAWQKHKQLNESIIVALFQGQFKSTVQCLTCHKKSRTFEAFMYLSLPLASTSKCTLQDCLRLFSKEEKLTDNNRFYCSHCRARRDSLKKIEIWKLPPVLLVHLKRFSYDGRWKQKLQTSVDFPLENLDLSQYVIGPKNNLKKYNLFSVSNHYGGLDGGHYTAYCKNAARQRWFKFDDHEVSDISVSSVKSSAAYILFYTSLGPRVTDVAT

>  <Smiles structure>
COc1c(O)cc(O)c2c(=O)cc(-c3ccc(N4CCCNCC4)cc3)oc12

>  <Unit info>
µM

>  <Kd>
43.6

$$$$
